Molecular target: T1, Human VEGFA165 (human, UniProt P15692-4 27-191)
T1 construct: treated as the same molecule; also called antigen VEGFA
T1 sequence (P15692 other isoform, or with tags, fused parts or gaps limits assumed): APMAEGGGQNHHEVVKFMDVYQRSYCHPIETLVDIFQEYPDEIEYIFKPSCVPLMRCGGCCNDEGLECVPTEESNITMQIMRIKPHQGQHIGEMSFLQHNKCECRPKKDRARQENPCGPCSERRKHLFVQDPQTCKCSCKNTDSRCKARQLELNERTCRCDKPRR
Assay: SPR Biacore 8K, VEGFA165 amine-coupled on CM5, nanobody as analyte, 1:1 model
Catalogue of kon values
Field: numeric (M⁻¹ s⁻¹). Do not append units.

>>> reported("V40 (VHH, Purified with C-terminal GGGGS-6×His) VHH: QLQLVESGGGSVQPGGSLRLSCEVSGRTFTSYTMGWFRQAPGKEREFVVAISKGGYKYNAVSLEARFTISKDNTKNTVYLQMNSLKPEDTAVYYCAGTRAYGSSRLRLAKTYEYWGQGTQVTVSS")
353000

Shifting focus to the binder that follows.
Input: Look up kon of V30 (VHH, Purified with C-terminal GGGGS-6×His; also called candidate antibody V30) VHH: QLQLVESGGGSVQPGGSLRLSCEVSGRTFSSYTMGWFRQAPGKGREFVVAISKGGYKYDAVSLEARFTISKDNTKNTVYLQMNSLKPEDTAVYYCAATRAYGSSRLRLAKTYEYWGQGTQVTVSS and report it.
Output: 635000

Cited source: patent EP4582447A1
